meta.source: paper PMC9391306

Molecular target: PARP1 ΔART (UniProt P09874 1-786)
Sequence (P09874 1-786, stated change not applied): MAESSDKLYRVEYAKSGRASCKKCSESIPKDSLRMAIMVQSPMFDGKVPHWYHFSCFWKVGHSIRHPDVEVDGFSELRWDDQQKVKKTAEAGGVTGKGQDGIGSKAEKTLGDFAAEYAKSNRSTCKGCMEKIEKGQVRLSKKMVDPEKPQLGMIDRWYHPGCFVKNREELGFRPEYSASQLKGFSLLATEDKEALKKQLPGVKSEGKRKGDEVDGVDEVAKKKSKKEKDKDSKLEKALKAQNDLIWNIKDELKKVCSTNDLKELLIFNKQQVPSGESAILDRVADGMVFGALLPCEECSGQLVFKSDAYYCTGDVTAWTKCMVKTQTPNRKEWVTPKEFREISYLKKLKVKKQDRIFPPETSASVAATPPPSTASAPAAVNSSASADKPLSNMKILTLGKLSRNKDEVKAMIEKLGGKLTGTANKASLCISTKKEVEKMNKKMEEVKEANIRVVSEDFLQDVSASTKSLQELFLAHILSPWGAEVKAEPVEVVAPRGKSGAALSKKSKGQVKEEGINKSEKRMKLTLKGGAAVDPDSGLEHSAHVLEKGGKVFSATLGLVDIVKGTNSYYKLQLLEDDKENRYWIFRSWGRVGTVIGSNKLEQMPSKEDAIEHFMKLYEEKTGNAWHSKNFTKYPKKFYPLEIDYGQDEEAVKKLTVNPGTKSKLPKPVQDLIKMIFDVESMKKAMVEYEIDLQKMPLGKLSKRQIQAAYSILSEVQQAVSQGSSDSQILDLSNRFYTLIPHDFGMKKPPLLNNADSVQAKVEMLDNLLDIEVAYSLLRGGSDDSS
Test: fluorescence polarization
metric-name: pKd
Note: pKd values are expressed as the negative base-10 logarithm of concentration in M.

Req: Tell us which pKd value is on record for 18-bp DSB duplex (dsDNA) DNA 1: GGGTTGCGGCCGCTTGGG DNA 2: CCCAAGCGGCCGCAACCC
Resp: 7.92
